Every entry's value here was drawn from patent US20230340011A1.

Molecular target: SREBP-2 (Homo sapiens (Human), UniProt Q12772)
Test: In vitro assay SREBP-2: PathHunter U2OS SREBP-2 Nuclear Translocation Cell Line, U18666A-stimulated
Type: cell-based
Settings: PathHunter U2OS SREBP-2 nuclear translocation cells, U18666A 10 μM, overnight (16 hours)
endpoint-name: IC50

smiles-entry | IC50
C[C@H](CCC(=O)N1CC[C@H](NC(=O)c2ccncn2)C1)[C@H]1CC[C@H]2[C@@H]3CC=C4C[C@@H](O)CC[C@]4(C)[C@H]3CC[C@]12C | < 250 nM
COc1ccncc1N1CCN(C(=O)CC[C@@H](C)[C@H]2CC[C@H]3[C@@H]4CC=C5C[C@@H](O)CC[C@]5(C)[C@H]4CC[C@]23C)CC1 | < 250 nM
Cc1ccnc(OC[C@@H](C)[C@H]2CC[C@H]3[C@@H]4CC=C5C[C@@H](O)CC[C@]5(C)[C@H]4CC[C@]23C)c1 | < 250 nM
C[C@H](CCC(=O)N1CCN(C(=O)c2cn(C)nn2)CC1)[C@H]1CC[C@H]2[C@@H]3CC=C4C[C@@H](O)CC[C@]4(C)[C@H]3CC[C@]12C | < 250 nM

Entry C[C@H](CCc1ncccc1C(C)(C)O)[C@H]1CC[C@H]2[C@@H]3CC=C4C[C@@H](O)CC[C@]4(C)[C@H]3CC[C@]12C , tested on SREBP-2 (Homo sapiens (Human), UniProt Q12772), has a reported IC50 of < 250 nM

Entry CCc1cccc(CC[C@@H](C)[C@H]2CC[C@H]3[C@@H]4CC=C5C[C@@H](O)CC[C@]5(C)[C@H]4CC[C@]23C)n1 , tested on SREBP-2 (Homo sapiens (Human), UniProt Q12772), has a reported IC50 of 250 to 1000 nM

Entry C[C@@H]1CCN(C(=O)N2CCN(C(=O)CC[C@@H](C)[C@H]3CC[C@H]4[C@@H]5CC=C6C[C@@H](O)CC[C@]6(C)[C@H]5CC[C@]34C)CC2)C1 , tested on SREBP-2 (Homo sapiens (Human), UniProt Q12772), has a reported IC50 of < 250 nM

Entry C[C@H](Oc1ccc(CO)nc1)[C@H]1CC[C@H]2[C@@H]3CC=C4C[C@@H](O)CC[C@]4(C)[C@H]3CC[C@]12C , tested on SREBP-2 (Homo sapiens (Human), UniProt Q12772), has a reported IC50 of 250 to 1000 nM

Entry C[C@H](CCc1cncnc1)[C@H]1CC[C@H]2[C@@H]3CC=C4C[C@@H](O)CC[C@]4(C)[C@H]3CC[C@]12C , tested on SREBP-2 (Homo sapiens (Human), UniProt Q12772), has a reported IC50 of < 250 nM

Entry Cc1noc(C2CCN(C(=O)CC[C@@H](C)[C@H]3CC[C@H]4[C@@H]5CC=C6C[C@@H](O)CC[C@]6(C)[C@H]5CC[C@]34C)CC2)n1 , tested on SREBP-2 (Homo sapiens (Human), UniProt Q12772), has a reported IC50 of < 250 nM

Entry C[C@H](CCC(=O)N1CC[C@H](Nc2ccncn2)C1)[C@H]1CC[C@H]2[C@@H]3CC=C4C[C@@H](O)CC[C@]4(C)[C@H]3CC[C@]12C , tested on SREBP-2 (Homo sapiens (Human), UniProt Q12772), has a reported IC50 of < 250 nM
